Target: Protein kinase C delta type (Homo sapiens, UniProt Q05655)
Sequence (Q05655 whole entry, the tested form may be a part): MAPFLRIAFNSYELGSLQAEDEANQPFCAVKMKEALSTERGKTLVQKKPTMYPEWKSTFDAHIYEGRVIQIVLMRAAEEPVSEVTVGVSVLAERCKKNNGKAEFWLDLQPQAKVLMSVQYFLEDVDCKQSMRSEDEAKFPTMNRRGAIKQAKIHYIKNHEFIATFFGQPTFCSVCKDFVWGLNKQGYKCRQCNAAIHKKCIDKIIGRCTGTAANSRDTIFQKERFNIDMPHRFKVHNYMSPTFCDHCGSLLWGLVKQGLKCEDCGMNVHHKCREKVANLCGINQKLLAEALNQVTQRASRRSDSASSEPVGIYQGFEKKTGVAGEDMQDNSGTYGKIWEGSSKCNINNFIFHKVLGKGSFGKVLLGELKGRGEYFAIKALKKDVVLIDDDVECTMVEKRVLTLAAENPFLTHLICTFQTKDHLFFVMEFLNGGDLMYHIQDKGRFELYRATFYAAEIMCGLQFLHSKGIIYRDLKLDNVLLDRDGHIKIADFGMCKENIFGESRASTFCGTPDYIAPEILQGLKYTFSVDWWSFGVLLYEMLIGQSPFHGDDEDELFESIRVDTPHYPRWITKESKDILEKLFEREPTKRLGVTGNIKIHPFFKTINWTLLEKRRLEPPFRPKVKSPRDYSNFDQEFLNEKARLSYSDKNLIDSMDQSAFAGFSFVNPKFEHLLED
Experiment: Binding affinity to PKCdelta C1B domain (231 to 281 residues) (unknown origin) by 6-methoxynaphthalene DAG lactone probe based fluorescence quenching assay
Conditions: read-out: IC50
measuredParameter: IC50 (nM)
Answers are plain numbers, in nM.

These recorded examples may help you get a feel for the data.
1) CCCCCCC(CCCCCC)C(=O)OCC1(CO)CC(=C(C)C)C(=O)O1 (centres undefined)	690
2) CCCCCCCCCC(CCCCCCCCC)C(=O)OCC1(CO)CC(=C(C)C)C(=O)O1 (centres undefined)	560

Now let's try a different one.
Recorded IC50 of CCCCCCCCCC(=O)OCC1(CO)CC(=C(C)C)C(=O)O1 (centres undefined) , please.
2200
